Molecular target: T1, human SIRPβ isoform 1 (human, UniProt O00241 30-148)
T1 construct: also called SIRPb; sirpb1
T1 sequence (O00241 30-148 limits assumed): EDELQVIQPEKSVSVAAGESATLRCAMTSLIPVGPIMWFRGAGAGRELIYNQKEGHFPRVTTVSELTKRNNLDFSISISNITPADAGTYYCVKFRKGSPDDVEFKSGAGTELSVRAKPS
Assay: SPR, Langmuir fit
Readout Type: koff (s⁻¹)

>>> readout_number("S21 (scFv, V domains shown, also called clone 21; scFv-Fc form of AB21) VH: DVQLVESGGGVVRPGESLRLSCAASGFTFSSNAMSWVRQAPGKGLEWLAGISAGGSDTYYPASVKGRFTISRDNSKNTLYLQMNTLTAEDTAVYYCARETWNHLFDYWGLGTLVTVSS VL: ALTQPASVSANPGETVKIACSGGDYYSYYYGWYQQKAPGSALVTVIYSDDKRPSDIPSRFSGSASGSTATLTITGVRAEDEAVYYCGGYDYSTYANAFGAGTTLTVL")
0.00019
>>> readout_number("S202 (scFv, V domains shown) VH: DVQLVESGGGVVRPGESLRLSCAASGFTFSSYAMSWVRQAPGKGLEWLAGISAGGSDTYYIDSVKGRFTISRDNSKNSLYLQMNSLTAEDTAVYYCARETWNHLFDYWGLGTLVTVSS VL: ALTQPASVSANPGETVKITCSGGGYYSTYYGWYQQRSPGSAPVTVIHSDDKRPSDIPSRFSGSASGSAATLTITGVRVEDEAVYYCAGYDGRTYLNTFGAGTTLTVL")
0.00205
>>> readout_number("S28 (scFv, V domains shown, also called clone 28) VH: DVQLVESGGGVVRPGESLRLSCAASGFSFSSNAMSWVRQAPGKGLEWVAGISASGDTYYSGSMKGRFTISRDNSKNTLYLQMNSLTAEDTAVYYCARETWNHLFDYWGLGTLVTVSS VL: ALTQPASVSANPGETVKITCSGGSDSYYYGWHQQKSPGSAPVTVIYSDDQRPPDIPSRFSGSASGSTTTLTITGVRAEDEAVYYCGGYDYSTYTNTFGAGTTLTVL")
"6.29e-05"
